Target: T1, human PD-L1 ECD-His (human, UniProt Q9NZQ7 19-238)
T1 construct: extracellular domain; Analyte in all SPR and BLI runs; also called hPD-L1_ECD-His; hPD-L1 ECD-His; not shown: His tag
T1 sequence (Q9NZQ7 19-238): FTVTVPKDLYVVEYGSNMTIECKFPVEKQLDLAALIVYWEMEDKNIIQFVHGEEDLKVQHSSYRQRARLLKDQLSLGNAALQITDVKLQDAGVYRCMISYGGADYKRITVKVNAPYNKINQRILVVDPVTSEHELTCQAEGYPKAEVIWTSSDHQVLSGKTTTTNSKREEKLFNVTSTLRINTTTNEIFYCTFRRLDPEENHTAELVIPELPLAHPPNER
Assay: BLI Octet RED96, biotinylated antibody on SA sensor, hPD-L1-His analyte, 1:1 fit
Protocol: Briefly, black 96-well plate was prepared with columns containing 200 μL/well of reagents required for determination of affinity. In general, Octet SA sensors were first placed in wells containing 1×Kinetics Buffer (PBS, 0.1% BSA, 0.02% Tween-20, pH 7.4) for 180 seconds to establish a baseline. […] Association was then measured by incubating the sensors for 5 minutes in wells containing hPD-L1-His followed by transferring to wells containing 1×Kinetics Buffer for 10 minutes to measure dissociation. […]
quantity-name: koff (s⁻¹)
Quick reminder: number only, in s⁻¹, skip the unit.

The examples below pair each entry with its known result.
PL3#7-54 mtIgG1 (antibody, V domains shown, Antibody was biotinylated (NHS-PEG4-biotin, sites not specified) for the Octet assay of Table 11., N297A mutant human IgG1) VH: QVQLVQSGAEVKKPGSSVKVSCKASGGTFSSYPISWVRQAPGQGLEWMGRIIPILGIADYAQKFQGRVTITADKSTSTAYMELSSLRSEDTAVYYCARSRPGYAFGAFDIWGQGTLVTVSS VL: QSVVTQPPPVSGAPGQRVTISCTGSSSNIGQGYDVHWYQQLPGTAPKLLIYANSNRPSGVPDRFSGSKSGTSASLAITGLQAEDEADYYCQTYDSSLSARVVFGGGTKLTVLG : 0.000228
PL3#7-19 mtIgG1 (antibody, V domains shown, Antibody was biotinylated (NHS-PEG4-biotin, sites not specified) for the Octet assay of Table 11., N297A mutant human IgG1; also called PL3#7-19 parental mtIgG1) VH: QVQLVQSGAEVKKPGSSVKVSCKASGGTFSSYPISWVRQAPGQGLEWMGRIIPILGIANYAQKFQGRVTITADKSTSTAYMELSSLRSEDTAVYYCARSRDGYAFGAFDVWGQGTLVTVSS VL: QSVVTQPPPVSGAPGQRVTISCTGSSSNIGGGYDVHWYQQLPGTAPKLLIYGNSTRPSGVPDRFSGSKSGTSASLAITGLQAEDEADYYCQTYDSSLSATVVFGGGTKLTVLG : 0.000201
PL2#3 mtIgG1 (N297A) (antibody, V domains shown, N297A mutant of human IgG1 Fc backbone) VH: EVQLVQSGGGLVKPGGSLRLSCAASGFTFSSYTMNWVRQAPGKGLEWVSSISSGSDYLYYADSVKGRFTISRDNAKNSLYLQMNSLRAEDTAVYYCARNELRWYPQAGAFDRWGQGTMVTVSS VL: QSVVTQPPSMSAAPGQRVTISCSGSSSYIESSYVGWYQQLPGTAPRLLIYDDDMRPSGIPDRFSGSKSGTSATLAITGLQTGDEADYYCEIWRSGLGGVFGGGTKLTVLS : 0.000561
PL3#7-43 mtIgG1 (antibody, V domains shown, Antibody was biotinylated (NHS-PEG4-biotin, sites not specified) for the Octet assay of Table 11., N297A mutant human IgG1; also called PL3#7-43 parental mtIgG1) VH: QVQLVQSGAEVKKPGSSVKVSCKASGGTFSSYPISWVRQAPGQGLEWMGRIIPILGIANYAQKFQGRVTITADKSTSTAYMELSSLRSEDTAVYYCARSRPGYAFGAFDIWGQGTLVTVSS VL: QSVVTQPPPVSGAPGQRVTISCTGSSSNVGAGYDVHWYQQLPGTAPKLLIYGNSNRSSGVPDRFSGSKSGTSASLAITGLQAEDEADYYCQTYDSSGSARVVFGGGTKLTVLG : 0.000103

Attention now shifts to the item below.
Check the records and state koff for PL3#7 mtIgG1 (antibody, V domains shown, Antibody was biotinylated (NHS-PEG4-biotin, sites not specified) for the Octet assay of Table 11., N297A mutant human IgG1) VH: QVQLVQSGAEVKKPGSSVKVSCKASGGTFSSYPISWVRQAPGQGLEWIGRIIPILGIANYAQKFQGRVTITADKSTSTAYMELSSLRSEDTAVYYCARSRDGYAFGAFDIWGQGTLVTVSS VL: QSVVTQPPPVSGAPGQRVTISCTGSSSNIGAGYDVHWYQQLPGTAPKLLIYGNSNRPSGVPDRFSGSKSGTSASLAITGLQAEDEADYYCQTYDSSLSARVVFGGGTKLTVLG 0.000305
